# Test System: Voltage-dependent L-type calcium channel subunit alpha-1C (Rattus norvegicus, UniProt P22002); further: assay procedure not described here
# Sequence (P22002 whole entry): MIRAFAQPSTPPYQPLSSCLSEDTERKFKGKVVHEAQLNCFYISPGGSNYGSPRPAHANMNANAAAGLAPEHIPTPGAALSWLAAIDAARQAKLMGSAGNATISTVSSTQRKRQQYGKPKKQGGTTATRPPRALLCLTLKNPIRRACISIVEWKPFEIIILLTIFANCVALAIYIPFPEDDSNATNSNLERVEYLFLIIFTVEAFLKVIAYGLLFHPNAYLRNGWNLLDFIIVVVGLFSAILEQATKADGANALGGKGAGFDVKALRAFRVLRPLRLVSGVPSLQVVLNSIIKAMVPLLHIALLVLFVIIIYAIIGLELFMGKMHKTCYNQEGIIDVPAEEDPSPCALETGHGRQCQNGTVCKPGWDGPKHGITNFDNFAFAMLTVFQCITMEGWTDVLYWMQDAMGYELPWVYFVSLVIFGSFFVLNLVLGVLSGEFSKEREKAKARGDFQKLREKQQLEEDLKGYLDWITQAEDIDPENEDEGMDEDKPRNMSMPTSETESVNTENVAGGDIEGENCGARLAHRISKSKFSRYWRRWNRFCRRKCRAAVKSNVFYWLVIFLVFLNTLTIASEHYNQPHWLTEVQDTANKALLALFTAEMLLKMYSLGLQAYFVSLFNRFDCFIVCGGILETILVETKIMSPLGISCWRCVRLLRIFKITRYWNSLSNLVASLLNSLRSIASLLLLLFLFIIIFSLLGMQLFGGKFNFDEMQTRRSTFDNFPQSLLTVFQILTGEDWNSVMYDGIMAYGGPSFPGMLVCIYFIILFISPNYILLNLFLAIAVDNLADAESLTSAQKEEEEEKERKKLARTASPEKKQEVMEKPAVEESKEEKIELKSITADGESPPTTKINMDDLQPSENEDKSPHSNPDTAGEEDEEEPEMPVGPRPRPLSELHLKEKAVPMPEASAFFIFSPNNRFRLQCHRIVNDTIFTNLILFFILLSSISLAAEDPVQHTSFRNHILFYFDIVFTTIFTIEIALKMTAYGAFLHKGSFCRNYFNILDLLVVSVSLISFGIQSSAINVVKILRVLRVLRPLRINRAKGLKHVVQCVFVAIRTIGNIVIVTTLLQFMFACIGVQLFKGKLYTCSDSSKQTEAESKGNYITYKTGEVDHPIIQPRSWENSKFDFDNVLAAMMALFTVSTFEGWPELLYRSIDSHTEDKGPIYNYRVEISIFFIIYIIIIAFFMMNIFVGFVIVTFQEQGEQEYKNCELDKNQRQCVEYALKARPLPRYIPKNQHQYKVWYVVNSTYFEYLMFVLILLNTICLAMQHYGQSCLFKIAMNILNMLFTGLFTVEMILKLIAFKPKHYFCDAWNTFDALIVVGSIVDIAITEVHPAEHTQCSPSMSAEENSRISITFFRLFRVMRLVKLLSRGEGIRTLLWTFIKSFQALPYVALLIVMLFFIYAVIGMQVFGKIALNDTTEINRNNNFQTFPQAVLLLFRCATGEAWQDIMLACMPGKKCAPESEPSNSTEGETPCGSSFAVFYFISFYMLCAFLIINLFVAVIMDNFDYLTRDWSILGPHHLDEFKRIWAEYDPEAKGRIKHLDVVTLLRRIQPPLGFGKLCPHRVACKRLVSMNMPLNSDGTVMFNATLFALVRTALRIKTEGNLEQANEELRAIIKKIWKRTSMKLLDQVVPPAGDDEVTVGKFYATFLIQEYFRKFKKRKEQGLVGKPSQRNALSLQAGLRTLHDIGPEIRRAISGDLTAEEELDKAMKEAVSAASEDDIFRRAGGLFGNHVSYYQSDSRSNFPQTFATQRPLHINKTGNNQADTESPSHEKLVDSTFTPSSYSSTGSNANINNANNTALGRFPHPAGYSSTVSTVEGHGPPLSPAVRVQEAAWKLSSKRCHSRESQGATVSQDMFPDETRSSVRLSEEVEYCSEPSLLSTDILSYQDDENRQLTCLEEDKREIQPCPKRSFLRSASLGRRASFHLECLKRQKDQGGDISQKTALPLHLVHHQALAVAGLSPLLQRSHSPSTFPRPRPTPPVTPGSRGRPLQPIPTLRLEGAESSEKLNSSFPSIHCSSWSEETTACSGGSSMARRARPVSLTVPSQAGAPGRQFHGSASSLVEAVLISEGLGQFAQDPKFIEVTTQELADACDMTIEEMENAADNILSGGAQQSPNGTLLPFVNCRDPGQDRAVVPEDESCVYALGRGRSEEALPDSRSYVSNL
# Assay type: functional
Measurement Name: AC50

Use these answered entries as a reference point.
Data request, read-out AC50, for "O=C1C(O)=C([C@H]2CC[C@H](c3ccc(Cl)cc3)CC2)C(=O)c2ccccc21"
> 30 µM

Could you tell me which AC50 is on file for NC(=O)OCC(COC(N)=O)c1ccccc1 [FELBAMATE] ?
> 10 µM

Consider the molecule shown here: "CC(C)(C)C(=O)Oc1ccc(S(=O)(=O)Nc2ccccc2C(=O)NCC(=O)O)cc1" What is its recorded AC50?
> 30 µM

Would you kindly share the measured AC50 for "Nc1nc(/C(=C/CC(=O)O)C(=O)N[C@@H]2C(=O)N3C(C(=O)O)=CCS[C@H]23)cs1" ?
> 30 µM

What AC50 value was documented for this molecule, "CCCCc1ncc(/C=C(\Cc2cccs2)C(=O)O)n1Cc1ccc(C(=O)O)cc1" ?
> 10 µM

Others:
Using the record for "O=[N+]([O-])c1cn2c(n1)OC[C@@H](OCc1ccc(OC(F)(F)F)cc1)C2" , report its AC50.
> 10 µM

Find the recorded AC50 belonging to "O=C(O)C1=C(CSc2nnnn2CS(=O)(=O)O)CS[C@@H]2[C@H](NC(=O)[C@H](O)c3ccccc3)C(=O)N12" and report it.
> 30 µM

Can you look up the measured AC50 of "COc1ccc2c3c1O[C@H]1[C@@H](O)C=C[C@H]4[C@@H](C2)N(C)CC[C@@]341" for me?
> 10 µM

---

# Test System: Thromboxane A2 receptor (Homo sapiens, UniProt P21731); further: assay procedure not described here
# Sequence (P21731 whole entry): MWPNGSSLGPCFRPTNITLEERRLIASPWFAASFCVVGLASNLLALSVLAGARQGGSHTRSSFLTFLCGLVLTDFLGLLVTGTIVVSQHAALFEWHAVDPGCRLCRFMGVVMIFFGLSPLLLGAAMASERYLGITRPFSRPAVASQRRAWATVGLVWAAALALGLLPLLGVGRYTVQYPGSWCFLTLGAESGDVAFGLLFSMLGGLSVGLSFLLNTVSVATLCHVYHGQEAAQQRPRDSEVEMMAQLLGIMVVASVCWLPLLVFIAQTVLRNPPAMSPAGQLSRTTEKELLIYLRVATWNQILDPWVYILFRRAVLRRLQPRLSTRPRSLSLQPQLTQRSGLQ
# Format: functional
Recorded AC50 by entry

Requested read-out AC50, target or system Thromboxane A2 receptor (Homo sapiens, UniProt P21731), entry "Cc1c(C(=O)NN2CCCCC2)nn(-c2ccc(Cl)cc2Cl)c1-c1ccc(Cl)cc1"
> 30 µM

# value lookup — system Thromboxane A2 receptor (Homo sapiens, UniProt P21731), readout AC50, item "CC(C)C[C@H]1C(=O)N2CCC[C@H]2[C@]2(O)O[C@](NC(=O)[C@@H]3C=C4c5cccc6[nH]c(Br)c(c56)C[C@H]4N(C)C3)(C(C)C)C(=O)N12"
> 30 µM

Checklist item: AC50 tested on Thromboxane A2 receptor (Homo sapiens, UniProt P21731), entry "N[C@@H]1[C@H]2CN(c3nc4c(cc3F)c(=O)c(C(=O)O)cn4-c3ccc(F)cc3F)C[C@@H]12" , value?; further: assay procedure not described here
> 30 µM

---

AC50 data for Cholecystokinin receptor type A (Homo sapiens) follow.

Please review the entries below; each comes with its answer.
For the molecule shown here, C[C@]12CCC(=O)C=C1CC[C@@H]1[C@@H]2[C@@H](O)C[C@@]2(C)[C@H]1CC[C@]2(O)C(=O)CO [HYDROCORTISONE] , give the reported AC50.
> 30 µM

Field request: AC50 | item: "CN1CCN(CC/C=C2/c3ccccc3Sc3ccc(S(=O)(=O)N(C)C)cc32)CC1"
> 30 µM

***
Tell me the measured AC50 of Cc1cccc(C(C)c2cnc[nH]2)c1C (stereo unspecified) , please.
> 30 µM

---

Listing of recorded AC50 by entry.
# Test System: D(1A) dopamine receptor (Homo sapiens); further: assay procedure not described here
# Sequence (P21728 whole entry): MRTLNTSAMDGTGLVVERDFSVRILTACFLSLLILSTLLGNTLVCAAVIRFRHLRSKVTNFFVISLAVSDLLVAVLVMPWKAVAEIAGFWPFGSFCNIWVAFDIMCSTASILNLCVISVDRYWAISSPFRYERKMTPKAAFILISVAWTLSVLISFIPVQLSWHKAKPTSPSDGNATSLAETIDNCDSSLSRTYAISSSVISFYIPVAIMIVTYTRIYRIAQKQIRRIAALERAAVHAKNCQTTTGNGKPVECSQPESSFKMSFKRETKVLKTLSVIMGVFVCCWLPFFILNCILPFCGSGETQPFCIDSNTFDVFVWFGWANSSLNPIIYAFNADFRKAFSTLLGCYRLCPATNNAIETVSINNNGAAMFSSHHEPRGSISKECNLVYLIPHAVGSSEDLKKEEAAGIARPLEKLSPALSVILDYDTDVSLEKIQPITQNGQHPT
# Type: functional, cell-based

Example molecules with recorded AC50:
Query: AC50; subject: O=C(NCCN1CCOCC1)c1ccc(Cl)cc1 [MOCLOBEMIDE]
> 10 µM

Recorded AC50 for "CC(C)(C)C(=O)Oc1ccc(S(=O)(=O)Nc2ccccc2C(=O)NCC(=O)O)cc1" , please?
> 30 µM

What value of AC50 has been reported for the following molecule? CCC(C(=O)O)c1ccc(N2Cc3ccccc3C2=O)cc1 (stereo not given)
> 30 µM

Could you share which AC50 value was measured for CC1(C)NC(=O)N(c2ccc([N+](=O)[O-])c(C(F)(F)F)c2)C1=O [NILUTAMIDE] ?
> 30 µM

***
Requested read-out: AC50. Entry: OC(CNCC(O)C1CCc2cc(F)ccc2O1)C1CCc2cc(F)ccc2O1 (stereo not given)
> 30 µM
